test: Kinetic solubility of the compound in aqueous Todd Hewitt bacterial media at 0.87 to 99 uM by UV/Vis spectrophotometry; type: physicochemical; settings: read-out: Kinetic_solubility
Criterion: solubility kinetic meeting or surpassing 20 µM. Met: t. Not met: f.

> print(dat)
                                smiles.data  label.class
1  C=CCn1c(SCc2ccccc2)nc2c(c1=O)C1(CCCCC1)Cc1ccccc1-2            f
2  C=CCn1c(SCCCC)nc2c(c1=O)C1(CCCCC1)Cc1ccccc1-2            f
3  C=CCn1c(SC)nc2c(c1=O)C1(CCCCC1)Cc1ccccc1-2            t
4  C=CCn1c(SCC#N)nc2c(c1=O)C(C)(C)Cc1ccccc1-2            t
5  C=CCn1c(SCCOC)nc2c(c1=O)C1(CCCCC1)Cc1ccccc1-2            f
6  C=CCn1c(SCCOC)nc2c(c1=O)C(C)(C)Cc1ccccc1-2            t
7  C=CCn1c(SCc2ccccc2)nc2c(c1=O)C(C)(C)Cc1ccccc1-2            f
8  C=CCn1c(NCC)nc2c(c1=O)C1(CCCCC1)Cc1ccccc1-2            f
9  C=CCn1c(OCC)nc2c(c1=O)C1(CCCCC1)Cc1ccccc1-2            f

====

Overview of recorded solubility kinetic for various compounds
test: Kinetic solubility of the compound in phosphate-buffered saline at 0.87 to 99 uM by UV/Vis spectrophotometry; type: physicochemical
Value type: solubility kinetic (µM)

> print(dat)
                                smiles.data  recorded.value
1  C=CCn1c(SCCCC)nc2c(c1=O)C1(CCCCC1)Cc1ccccc1-2               2
2  C=CCn1c(SCC#N)nc2c(c1=O)C(C)(C)Cc1ccccc1-2               3
